# experimental system: X-box-binding protein 1 (Homo sapiens)
# measurement protocol: XBP1 reporter suppression in cells – counter-screen, dose response (AID 504313);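 further: CHO cells carrying an XBP1 reporter stimulated with tunicamycin; potency is for inhibition of the tunicamycin-induced reporter signal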
# particulars: XBP1 reporter cell assay, percent of control
The source made the active and inactive calls. How the calls were made is not given here.
Outcomes: yes = active, no = inactive

molecule: CCSc1nc2ccccc2n1C(=O)/C=C\c1ccc(OC)c(OC)c1
experimental system: X-box-binding protein 1 (Homo sapiens)
group label: yes
//
molecule: CC(C)Oc1cc(NC(=O)CS(=O)CC(=O)Nc2cccc(C(F)(F)F)c2)c(Cl)cc1Cl (stereo not given)
experimental system: X-box-binding protein 1 (Homo sapiens)
group label: no
//
molecule: CCCNC(=O)c1nnsc1S(=O)(=O)c1ccc(Cl)cc1
experimental system: X-box-binding protein 1 (Homo sapiens)
group label: yes
//
molecule: O=C(Nc1ccc(-c2nc3ccccc3s2)cc1)C1=COCCO1
experimental system: X-box-binding protein 1 (Homo sapiens)
group label: no
//
molecule: CC(C)Cn1c(=O)[nH]c(=O)c2c(C(F)(F)F)cc(-c3ccccc3)nc21
experimental system: X-box-binding protein 1 (Homo sapiens)
group label: no
